Molecular target: Estrogen receptor (Mus musculus) (UniProt O08537+P19785)
Sequence (O08537 whole entry, looked up): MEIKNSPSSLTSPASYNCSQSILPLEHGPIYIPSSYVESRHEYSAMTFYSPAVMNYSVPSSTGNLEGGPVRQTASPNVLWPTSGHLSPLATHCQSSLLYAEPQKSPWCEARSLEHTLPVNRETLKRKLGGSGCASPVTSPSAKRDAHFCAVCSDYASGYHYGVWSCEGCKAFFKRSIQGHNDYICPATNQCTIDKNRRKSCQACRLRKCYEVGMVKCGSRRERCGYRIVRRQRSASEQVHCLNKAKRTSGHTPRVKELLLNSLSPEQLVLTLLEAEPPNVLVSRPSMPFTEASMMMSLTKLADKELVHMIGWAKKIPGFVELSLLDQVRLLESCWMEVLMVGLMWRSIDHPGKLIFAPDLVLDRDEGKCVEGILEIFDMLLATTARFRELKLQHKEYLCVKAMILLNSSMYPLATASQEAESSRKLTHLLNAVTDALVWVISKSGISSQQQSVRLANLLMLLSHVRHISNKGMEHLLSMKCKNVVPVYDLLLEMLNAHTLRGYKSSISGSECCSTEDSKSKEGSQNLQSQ
Sequence (P19785 whole entry, looked up): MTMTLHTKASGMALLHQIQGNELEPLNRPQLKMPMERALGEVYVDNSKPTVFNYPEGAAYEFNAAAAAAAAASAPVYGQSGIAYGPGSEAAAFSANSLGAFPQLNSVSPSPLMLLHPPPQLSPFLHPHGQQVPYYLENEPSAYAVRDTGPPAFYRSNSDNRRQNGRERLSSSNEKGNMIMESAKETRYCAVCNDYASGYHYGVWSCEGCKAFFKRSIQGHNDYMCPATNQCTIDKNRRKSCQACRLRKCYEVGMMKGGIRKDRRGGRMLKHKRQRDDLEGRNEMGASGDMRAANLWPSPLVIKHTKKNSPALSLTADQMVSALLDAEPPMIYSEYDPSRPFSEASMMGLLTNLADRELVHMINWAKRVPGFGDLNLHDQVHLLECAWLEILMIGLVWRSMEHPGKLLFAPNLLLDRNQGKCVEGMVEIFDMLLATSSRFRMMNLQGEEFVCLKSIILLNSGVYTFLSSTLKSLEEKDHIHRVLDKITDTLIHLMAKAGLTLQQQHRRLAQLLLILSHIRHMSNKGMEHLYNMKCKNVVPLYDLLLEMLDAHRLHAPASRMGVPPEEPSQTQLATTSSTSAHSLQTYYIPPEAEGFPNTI
Assay: Percentage inhibition of uterotrophic activity at 125 ug dose
Type: functional
measured_parameter: inhibition (%)

| record_smiles | target_system | measured_parameter | display_unit | reported_value |
| --- | --- | --- | --- | --- |
| CC(=O)Oc1ccc(-c2c(C)c3ccc(OC(C)=O)cc3n2C)cc1 | Estrogen receptor (Mus musculus) (UniProt O08537+P19785) | inhibition | % | 33 |
| CCc1c(-c2ccc(OC(C)=O)cc2)n(C)c2cc(OC(C)=O)ccc12 | Estrogen receptor (Mus musculus) (UniProt O08537+P19785) | inhibition | % | 52 |
| CC(=O)Oc1ccc(-c2c(C)c3cc(OC(C)=O)ccc3n2C)cc1 | Estrogen receptor (Mus musculus) (UniProt O08537+P19785) | inhibition | % | 62 |

(A) CCn1c(-c2cccc(OC(C)=O)c2)c(C)c2ccc(OC(C)=O)cc21
(B) CCCn1c(-c2ccc(OC(C)=O)cc2)c(C)c2cc(OC(C)=O)ccc21
Input: Between A and B , which one has the lower reported inhibition value? Please identify the chosen entry by its label.
Output: A
(A: 26%, B: 67%)

----------
Biological target: Estrogen receptor (Mus musculus) (UniProt O08537+P19785)
Assay: Percentage inhibition of uterotrophic activity at 5 ug dose
Type: functional
measured_parameter: inhibition (%)

Here are 2 molecules together with their reported answers.
| record_smiles | measured_parameter | reported_value |
| --- | --- | --- |
| CCCn1c(-c2ccc(OC(C)=O)cc2)c(C)c2cc(OC(C)=O)ccc21 | inhibition | 37 |
| CCc1c(-c2ccc(OC(C)=O)cc2)n(C)c2cc(OC(C)=O)ccc12 | inhibition | 14 |

(I) CCn1c(-c2cccc(OC(C)=O)c2)c(C)c2ccc(OC(C)=O)cc21
(II) CC(=O)Oc1ccc(-c2c(C)c3ccc(OC(C)=O)cc3n2C)cc1
(III) CC(=O)Oc1ccc(-c2c(C)c3cc(OC(C)=O)ccc3n2C)cc1
Input: Order the records by inhibition, with each subsequent value no larger than the one before. Could you list the labels in the order requested?
Output: III, I, II
(III: 35%, I: 11%, II: 7%)

----------
Molecular target: Estrogen receptor (Mus musculus) (UniProt O08537+P19785)
Assay: Uterotrophic activity in mice as uterus dry weight (mg)/body weight (g) *100 at 1 ug dose
Type: functional, tissue-based
measured_parameter: Uterotrophic effect
The answer should be a number; do not append a unit.

Known Uterotrophic effect results, listed for orientation:
| record_smiles | Uterotrophic effect |
| --- | --- |
| CCCn1c(-c2ccc(OC(C)=O)cc2)c(C)c2cc(OC(C)=O)ccc21 | 21.7 |
| CCc1c(-c2ccc(OC(C)=O)cc2)n(C)c2cc(OC(C)=O)ccc12 | 13.2 |
| CCn1c(-c2ccc(OC(C)=O)cc2)c(C)c2cc(OC(C)=O)ccc21 | 16.4 |

Input: Given the entry CC(=O)Oc1ccc(-c2c(C)c3ccc(OC(C)=O)cc3n2C)cc1 , report its measured Uterotrophic effect.
Output: 18.6

Input: Suppose we examine the compound CC(=O)Oc1ccc(-c2c(C)c3cc(OC(C)=O)ccc3n2C)cc1 ; what Uterotrophic effect value has been reported?
Output: 13.7

----------
Target: Estrogen receptor (Mus musculus) (UniProt O08537+P19785)
Experiment: Anti-uterotrophic activity in mice as uterus dry weight (mg)/body weight (g) *100 at 5 ug dose
Assay type: functional, tissue-based
Readings of Anti-uterotrophic effect for the listed molecules
Output: the number by itself.

| record_smiles | measured_parameter | reported_value |
| --- | --- | --- |
| CCCn1c(-c2ccc(OC(C)=O)cc2)c(C)c2cc(OC(C)=O)ccc21 | Anti-uterotrophic effect | 40.3 |
| CC(=O)Oc1ccc(-c2c(C)c3cc(OC(C)=O)ccc3n2C)cc1 | Anti-uterotrophic effect | 39.2 |
| CCc1c(-c2ccc(OC(C)=O)cc2)n(C)c2cc(OC(C)=O)ccc12 | Anti-uterotrophic effect | 48.8 |

Input: Quick one: Anti-uterotrophic effect for CCn1c(-c2cccc(OC(C)=O)c2)c(C)c2ccc(OC(C)=O)cc21 ?
Output: 41.7

Input: What does the data say about its Anti-uterotrophic effect? Entry: CC(=O)Oc1ccc(-c2c(C)c3ccc(OC(C)=O)cc3n2C)cc1
Output: 38.2
